# tested_system: KRAS G12C (Homo sapiens (Human), UniProt P01116+P62937, G12C)
# Sequence (P01116-2 other isoform, or with tags, fused parts or gaps G12C): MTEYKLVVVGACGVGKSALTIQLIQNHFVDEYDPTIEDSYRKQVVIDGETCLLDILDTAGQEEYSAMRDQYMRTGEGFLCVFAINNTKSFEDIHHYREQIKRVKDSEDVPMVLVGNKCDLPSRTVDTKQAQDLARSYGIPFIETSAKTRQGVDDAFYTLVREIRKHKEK
# Sequence (P62937 whole entry): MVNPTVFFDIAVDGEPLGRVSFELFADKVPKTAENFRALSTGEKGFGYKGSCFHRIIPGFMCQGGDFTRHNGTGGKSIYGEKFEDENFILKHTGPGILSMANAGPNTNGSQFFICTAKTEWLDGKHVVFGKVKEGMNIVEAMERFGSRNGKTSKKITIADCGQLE
# run_description: Ras-Raf disruption/FRET/MOA assay (BRAF RBD, Cyclophilin A)
# Assay type: biochemical
# run_parameters: read-out: KRAS G12C FRET IC50
pIC50: −log10 of the molar value.
Can you tell me pIC50 for the items I'm about to list?

# example entries with known answers
CCn1c(-c2cccnc2[C@H](C)OC)c2c3cc(ccc31)-c1csc(n1)C[C@H](NC(=O)[C@H](C(C)C)N(C)C(=O)N1CC[C@@H](F)[C@H](N)C1)C(=O)N1CCC[C@H](N1)C(=O)OCC(C)(C)C2 [Compound A559] ... 6.00 to 7.00
CCn1c(-c2cccnc2[C@H](C)OC)c2c3cc(ccc31)-c1csc(n1)C[C@H](NC(=O)[C@H](C(C)C)N(C)C(=O)N1CCO[C@@]3(CCN(C)C3)C1)C(=O)N1CCC[C@H](N1)C(=O)OCC(C)(C)C2 [Compound A436] ... 6.00 to 7.00
CCn1c(-c2cccnc2[C@H](C)OC)c2c3cc(ccc31)-c1csc(n1)C[C@H](NC(=O)[C@H](C(C)C)N(C)C(=O)N1CCO[C@@H](c3ccccc3)C1)C(=O)N1CCC[C@H](N1)C(=O)OCC(C)(C)C2 [Compound A600] ... 7.00 to 8.00

// next item, pIC50 requested
Respond only with pIC50 recorded for CCn1c(-c2cccnc2[C@H](C)OC)c2c3cc(ccc31)C1=C[C@@H](O)CN(C1)C[C@H](NC(=O)[C@H]1[C@H](C)[C@@H]1C)C(=O)N1CCC[C@H](N1)C(=O)OCC(C)(C)C2 [Compound A424]
7.00 to 8.00

* * *

# tested_system: KRAS G13C (Homo sapiens (Human), UniProt P01116+P62937, G13C)
# Sequence (P01116 other isoform, or with tags, fused parts or gaps G13C): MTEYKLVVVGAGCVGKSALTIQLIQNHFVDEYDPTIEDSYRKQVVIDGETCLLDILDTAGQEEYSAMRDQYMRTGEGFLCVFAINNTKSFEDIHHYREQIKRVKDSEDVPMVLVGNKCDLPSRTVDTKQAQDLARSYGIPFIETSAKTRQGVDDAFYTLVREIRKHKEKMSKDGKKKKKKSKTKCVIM
# Sequence (P62937 whole entry): as the sequence (P62937 whole entry) above
# run_description: Ras-Raf disruption/FRET/MOA assay (BRAF RBD, Cyclophilin A)
# Type: biochemical
# run_parameters: read-out: KRAS G13C FRET IC50
pIC50: −log10 of the molar value.
Can you tell me pIC50 for the items I'm about to list?

# example entries with known answers
CCn1c(-c2cccnc2[C@H](C)OC)c2c3cc(ccc31)-c1csc(n1)C[C@H](NC(=O)[C@H](C(C)C)N(C)C(=O)N1CC(N)C1)C(=O)N1CCC[C@H](N1)C(=O)OCC(C)(C)C2 ... 6.00 to 7.00
CCn1c(-c2cccnc2[C@H](C)OC)c2c3cc(ccc31)-c1csc(n1)C[C@H](NC(=O)[C@H](C(C)C)N(C)C(=O)N1CCC13COC3)C(=O)N1CCC[C@H](N1)C(=O)OCC(C)(C)C2 ... 6.00 to 7.00
CO[C@@H](C)c1ncccc1-c1c2c3cc(ccc3n1C)-c1cc(O)cc(c1)C[C@H](NC(=O)[C@H](C(C)C)N(C)C(C)=O)C(=O)N1CCC[C@H](N1)C(=O)OCC(C)(C)C2 ... 5.00 to 6.00
CCn1c(-c2cccnc2[C@H](C)OC)c2c3cc(ccc31)-c1csc(n1)C[C@H](NC(=O)[C@H](C(C)C)N(C)C(=O)N1CC(C3COC3)C1)C(=O)N1CCC[C@H](N1)C(=O)OCC(C)(C)C2 ... 6.00 to 7.00
CCn1c(-c2cccnc2[C@H](C)OC)c2c3cc(ccc31)-c1cc(O)cc(c1)C[C@H](NC(=O)[C@H](C(C)C)N(C)C(=O)[C@H]1C[C@H]1F)C(=O)N1CCC[C@H](N1)C(=O)OCC(C)(C)C2 ... 7.00 to 8.00
CCn1c(-c2ccccc2[C@H](C)OC)c2c3cc(ccc31)-c1csc(n1)C[C@H](NC(=O)[C@H](C(C)C)N(C)C(=O)[C@H]1CCN(C(=O)OC3COC3)C1)C(=O)N1CCC[C@H](N1)C(=O)OCC(C)(C)C2 ... 5.00 to 6.00

Provide each entry's pIC50 from the list below.
1. CCn1c(-c2cccnc2COC)c2c3cc(ccc31)-c1cc(O)cc(c1)C[C@H](NC(=O)[C@H](C(C)C)N(C)C(C)=O)C(=O)N1CCC[C@H](N1)C(=O)OCC(C)(C)C2
2. CCn1c(-c2cccnc2[C@H](C)OC)c2c3cc(ccc31)-c1csc(n1)C[C@H](NC(=O)[C@H](C(C)C)N(C)C(=O)[C@H]1CCN(CCO)C1)C(=O)N1CCC[C@H](N1)C(=O)OCC(C)(C)C2
3. CCn1c(-c2cc(N3CCN(C)CC3)cnc2[C@H](C)OC)c2c3cc(ccc31)-c1csc(n1)C[C@H](NC(=O)[C@H](C(C)C)N(C)C(=O)[C@@H]1CCCS1(=O)=O)C(=O)N1CCC[C@H](N1)C(=O)OCC(C)(C)C2

1. 6.00 to 7.00
2. 5.00 to 6.00
3. 5.00 to 6.00

* * *

Can you tell me IC50 for the items I'm about to list?
# tested_system: KRAS G12C (Homo sapiens (Human), UniProt P01116+P62937, G12C)
# run_description: Ras-Raf disruption/FRET/MOA assay (BRAF RBD, Cyclophilin A)
# Assay type: biochemical
# run_parameters: read-out: KRAS G12C FRET IC50

# example entries with known answers
CCn1c(-c2cccnc2[C@H](C)OC)c2c3cc(ccc31)-c1csc(n1)C[C@H](NC(=O)[C@H](C(C)C)N(C)C(=O)N1CCN(C)[C@@H](c3ccccc3)C1)C(=O)N1CCC[C@H](N1)C(=O)OCC(C)(C)C2 ... 100 to 1000 nM
CCOC1c2nc(cs2)-c2ccc3c(c2)c(c(-c2cc(C4CC5COCC(C4)N5C4CC4)cnc2C(C)OC)n3CC)CC(C)(C)COC(=O)C2CCCN(N2)C(=O)C1NC(=O)C1C(C)C1C (stereo not shown) ... 10 to 100 nM
CCn1c(-c2cccnc2[C@H](C)OC)c2c3cc(ccc31)-c1csc(n1)C[C@H](NC(=O)[C@H](C(C)C)N(C)C(=O)[C@H]1CCN(C(=O)CN(C)C)C1)C(=O)N1CCC[C@H](N1)C(=O)OCC(C)(C)C2 ... 100 to 1000 nM
CCn1c(-c2cnccc2COC)c2c3cc(ccc31)-c1cc(O)cc(c1)C[C@H](NC(=O)[C@H](C(C)C)N(C)C(=O)[C@H]1CCCN1C)C(=O)N1CCC[C@H](N1)C(=O)OCC(C)(C)C2 ... 100 to 1000 nM
CCn1c(-c2cccnc2[C@H](C)OC)c2c3cc(ccc31)-c1csc(n1)C[C@H](NC(=O)[C@H](C(C)C)N(C)C(=O)N1CC3CCC1CN3C)C(=O)N1CCC[C@H](N1)C(=O)OCC(C)(C)C2 ... 100 to 1000 nM

Provide each entry's IC50 from the list below.
1. CCn1c(-c2cccnc2[C@H](C)OC)c2c3cc(ccc31)-c1cc(O)cc(c1)C[C@H](NC(=O)[C@H](C(C)C)N(C)C(=O)[C@H]1CCN(C(=O)[C@@H](C)N(C)C)C1)C(=O)N1CCC[C@H](N1)C(=O)OCC(C)(C)C2
2. CCn1c(-c2cccnc2[C@H](C)OC)c2c3cc(ccc31)-c1cc(cc(C(F)F)c1)C[C@H](NC(=O)[C@H](C(C)C)N(C)C(=O)[C@@H]1OCC[C@@H]1c1ccccc1)C(=O)N1CCC[C@H](N1)C(=O)OCC(C)(C)C2
3. CCn1c(-c2cccnc2[C@H](C)OC)c2c3cc(ccc31)-c1cc(O)cc(c1)C[C@H](NC(=O)[C@H](C(C)C)N(C)C(=O)[C@@H]1[C@@H]3CNC[C@@H]31)C(=O)N1CCC[C@H](N1)C(=O)OCC(C)(C)C2
4. C[C@H]1C[C@@H]1C(=O)N[C@H]1Cc2nc(cs2)-c2ccc3c(c2)c(c(-c2ccnc(N4CCN(C)CC4)c2)n3C(C)(C)C#N)CC(C)(C)COC(=O)[C@@H]2CCCN(N2)C1=O
5. CCn1c(-c2cccnc2[C@H](C)OC)c2c3cc(ccc31)-c1cccc(c1)C[C@H](NC(=O)[C@H](C(C)C)N(C)C(=O)[C@H]1CCN(C)C1)C(=O)N1CCC[C@H](N1)C(=O)OCC(C)(C)C2
6. CCn1c(-c2cccnc2[C@H](C)OC)c2c3cc(ccc31)-c1cc(O)cc(c1)C[C@H](NC(=O)[C@H](C(C)C)N(C)C(=O)[C@H]1CCN(C(=O)[C@H]3CCCN3C)C1)C(=O)N1CCC[C@H](N1)C(=O)OCC(C)(C)C2

1: 10 to 100 nM; 2: 100 to 1000 nM; 3: 10 to 100 nM; 4: 1000 to 10000 nM; 5: 1000 to 10000 nM; 6: 10 to 100 nM

Provide each entry's IC50 from the list below.
1. CCn1c(-c2cccnc2[C@H](C)OC)c2c3cc(ccc31)-c1cc(O)cc(c1)C[C@H](NC(=O)[C@H](C(C)C)N(C)C(=O)[C@@H]1CCN(C(=O)OC)C1)C(=O)N1CCC[C@H](N1)C(=O)OCC(C)(C)C2
2. CCn1c(-c2cccnc2[C@H](C)OC)c2c3cc(ccc31)-c1csc(n1)C[C@H](NC(=O)[C@H](C(C)C)N(C)C(=O)N1C[C@H](C)N(C)C[C@H]1C)C(=O)N1CCC[C@H](N1)C(=O)OCC(C)(C)C2

10 to 100 nM
1000 to 10000 nM
